These entries and their values trace back to PubChem BioAssay AID1569.

experiment: Confirmation Concentration-Response Assay for lipid storage modulators; details: Drosophila S3 cells, lipid droplet BODIPY/CellTracker ratio, 18-24 h; series mostly up to 46.1 µM; also: nearly all actives have a fitted effect of over 80% in size; also: potency is read from the fitted curve at half-maximal effect
Records with an inconclusive call do not appear. Activity calls are given as the source filed them. Calls follow the shape of the dose curve; as a rule, active = well fitted inhibition curve with a large enough effect; inconclusive = small, poorly fitted or top-dose-only effect, or effect the other way, or another doubt; inactive = no such curve, though single readings can be large or run the other way.
Observed property: Potency

Exercise: Which measured Potency value corresponds to CCOC(=O)C1(Cc2ccc(Cl)cc2)CCN(C(C)Cc2ccc(O)c(OC)c2)CC1 (configuration not stated) ?
Key: 11.2 µM (active)

Exercise: Which measured Potency value corresponds to O=C(NCC1(N2CCOCC2)CCCCC1)c1ccc(S(=O)(=O)Nc2ccccc2F)cc1 ?
Key: 3.97 µM (active)

Exercise: Which measured Potency value corresponds to Cc1ccccc1NC(=O)NC1(C(=O)N2CCC(O)CC2)CCCCC1 ?
Key: inactive

Exercise: Which measured Potency value corresponds to COC(c1ccccc1)c1nnc(CCC(=O)NC2C3CC4CC(C3)CC2C4)o1 (configuration not stated) ?
Key: 5.6 µM (active)

Exercise: Which measured Potency value corresponds to COc1ccc(OC)c(CCNC(=O)Cn2sc3nc(C)cc(C)c3c2=O)c1 ?
Key: 4.99 µM (active)

Exercise: Which measured Potency value corresponds to CCCCCCCCn1c(=O)c(C(=O)OC)c(N)c2ccccc21 ?
Key: 7.91 µM (active)

# batch: return Potency for each of the 6 compounds below
1. COc1ccc(NC(=O)NC2(C(=O)N3CCN(C)CC3)CCCCC2)cc1
2. COc1ccc(CCn2ccc(O)c(Cc3ccc(Cl)cc3)c2=O)cc1OC
3. CCCc1ccc(-c2csc(NC(=O)Cc3cccs3)n2)cc1
4. COc1ccc(NC(=O)NC2(C(=O)N3CCOCC3)CCCCC2)cc1
5. CCn1c(COc2ccc(Cl)cc2)nnc1SCC(=O)Nc1ccc2c(c1)OCCO2
6. c1ccc2c(c1)OCC(CNc1ncnc3sccc13)O2 (configuration not stated)

Key:
1. inactive
2. 0.315 µM (active)
3. 1.58 µM (active)
4. inactive
5. 11.2 µM (active)
6. 0.996 µM (active)

---

experiment: Confirmation Concentration-Response Assay for lipid storage modulators; settings: Drosophila S3 cells, lipid droplet BODIPY/CellTracker ratio, 18-24 h; series mostly up to 46.1 µM; also: nearly all actives have a fitted effect of over 80% in size
Records with an inconclusive call do not appear. Calls of active or inactive are those of the source. Calls follow the shape of the dose curve; as a rule, active = well fitted inhibition curve with a large enough effect; inconclusive = small, poorly fitted or top-dose-only effect, or effect the other way, or another doubt; inactive = no such curve, though single readings can be large or run the other way.
The reply should be one of these categories: active, inactive

Study these solved cases before continuing.
Exercise: Which outcome was entered for the compound CCNC(=O)NC1(C(=O)N2CCC(Cc3ccccc3)CC2)CCCCC1 in this test?
Key: inactive

Exercise: Which outcome was entered for the compound OCCNc1c2ccccc2nc2c(F)c(F)c(F)c(F)c12 in this test?
Key: active

Exercise: Which outcome was entered for the compound CCOC(=O)c1cc2c(ccn2C)n1CC(=O)N1C(C)CCCC1C (stereo not given) in this test?
Key: active

Exercise: Which outcome was entered for the compound Cc1ccccc1C(=O)N1CCC(C(=O)Nc2ccc(S(=O)(=O)N3CCCCC3)cc2)CC1 in this test?
Key: inactive

Exercise: Which outcome was entered for the compound CC(C)N1CCc2c(sc(NC(=O)c3ccc(S(=O)(=O)N4CCCCC4C)cc3)c2C(N)=O)C1 (stereo not given) in this test?
Key: inactive

***
Exercise: Which outcome was entered for the compound COc1ccc(CCNC(=O)CSc2nc3[nH]ncc3c(=O)n2-c2ccc(Cl)cc2Cl)cc1OC in this test?
Key: inactive

Exercise: Which outcome was entered for the compound COc1ccc(CCNC(=O)Cn2nnc(-c3ccc(N4CCOCC4)cc3)n2)cc1OC in this test?
Key: active

Exercise: Which outcome was entered for the compound COc1ccc(CCn2ccc(O)c(Cc3c(F)cccc3Cl)c2=O)cc1OC in this test?
Key: active

Exercise: Which outcome was entered for the compound COC(=O)c1cc(C)sc1NC(=O)C1CC(=O)NN1Cc1ccccc1 (stereo not given) in this test?
Key: active

Exercise: Which outcome was entered for the compound COc1ccccc1C(=O)O[C@H]1[C@H](Cc2ccccc2)NS(=O)(=O)[C@H]2C[C@@H]3C=C[C@]12O3 in this test?
Key: active

---

assay: Confirmation Concentration-Response Assay for lipid storage modulators; conditions: Drosophila S3 cells, lipid droplet BODIPY/CellTracker ratio, 18-24 h; series mostly up to 46.1 µM; also: nearly all actives have a fitted effect of over 80% in size; also: potency is read from the fitted curve at half-maximal effect
Records with an inconclusive call do not appear. Activity calls are given as the source filed them. Calls come from the whole dose curve; as a rule, active = well fitted inhibition curve with a large enough effect; inconclusive = small, poorly fitted or top-dose-only effect, or effect the other way, or another doubt; inactive = no such curve, though single readings can be large or run the other way.
Observed property: Potency

# count of solved cases: 3
Exercise: Which measured Potency value corresponds to Cc1cc(C)cc(-n2ncc3c2CCCC3NC(=O)c2csnn2)c1 (centres undefined) ?
Key: 0.0112 µM (active)

Exercise: Which measured Potency value corresponds to Nc1cccc(-c2nc3cc(S(=O)(=O)c4ccc5oc(-c6cccc(N)c6)nc5c4)ccc3o2)c1 ?
Key: 6.28 µM (active)

Exercise: Which measured Potency value corresponds to COc1ccc(CCNC(=O)c2ccc(N(C)S(=O)(=O)c3ccc(C)cc3)cc2)cc1OC ?
Key: 14.1 µM (active)

Then there is this compound:
Exercise: Which measured Potency value corresponds to Cc1ccc(C)c(OCc2cc(C(=O)N3CC[C@@H]4CCCC[C@H]4C3)no2)c1 ?
Key: 14.1 µM (active)

---

Experiment: Confirmation Concentration-Response Assay for lipid storage modulators; also: nearly all actives have a fitted effect of over 80% in size
Conditions: Drosophila S3 cells, lipid droplet BODIPY/CellTracker ratio, 18-24 h; series mostly up to 46.1 µM
Experimental: NIH Molecular Libraries Probe Production Centers Network [MLPCN] NIH Chemical Genomics Center [NCGC] […] Exo1 identified in the primary screen (AID 1519) and several analogs were measured in the lipid storage assay as 24-point concentration-response curves to confirm potency and SAR. […]
Inconclusive results are not listed. The source made the active and inactive calls. The call rests on the fitted dose curve; in most records, active means well fitted inhibition curve with a large enough effect; inconclusive means small, poorly fitted or top-dose-only effect, or effect the other way, or another doubt; inactive means no such curve, though single readings can be large or run the other way.
The reply should be one of these categories: active, inactive

Exercise: Which outcome was entered for the molecule CSCC(=O)NC1CCCc2c1cnn2-c1cc(F)cc(F)c1 (configuration not stated) in this test?
Key: active

***
Exercise: Which outcome was entered for the molecule CCOc1ccc(CCNC(=O)COC(=O)c2c(C)nn(-c3ccccc3)c2C)cc1OCC in this test?
Key: active

Exercise: Which outcome was entered for the molecule CCOC(=O)c1cc2c(ccn2-c2ccc(F)cc2)n1CC(=O)NC(C)(C)C in this test?
Key: active

Exercise: Which outcome was entered for the molecule COc1ccc(CCNC(=O)CC2SC(N)=NC2=O)cc1OC (configuration not stated) in this test?
Key: inactive

Exercise: Which outcome was entered for the molecule CCC(=O)c1ccc(OCC(=O)Nc2ccc(N3CCOCC3)cc2N2CCOCC2)cc1 in this test?
Key: inactive

Exercise: Which outcome was entered for the molecule CN(CC1CCCO1)S(=O)(=O)c1ccc(C(=O)Nc2ccc(F)cc2)cc1 (configuration not stated) in this test?
Key: inactive

Exercise: Which outcome was entered for the molecule COc1ccc(CCNC(=O)c2noc(C(C)C)c2[N+](=O)[O-])cc1OC in this test?
Key: inactive

---

assay: Confirmation Concentration-Response Assay for lipid storage modulators; conditions: Drosophila S3 cells, lipid droplet BODIPY/CellTracker ratio, 18-24 h; series mostly up to 46.1 µM; also: nearly all actives have a fitted effect of over 80% in size
Records with an inconclusive call do not appear. Active and inactive are the calls of the source. Calls follow the shape of the dose curve; as a rule, active = well fitted inhibition curve with a large enough effect; inconclusive = small, poorly fitted or top-dose-only effect, or effect the other way, or another doubt; inactive = no such curve, though single readings can be large or run the other way.
The reply should be one of these categories: true = active, false = inactive

Exercise: Which outcome was entered for the compound CN(Cc1cccc(F)c1)C(=O)c1ccc2c(=O)n3c(nc2c1)CCC3 in this test?
Key: false

Exercise: Which outcome was entered for the compound COc1ccc(-c2cnc(SCC(=O)Nc3nc(C(C)(C)C)cs3)n2Cc2ccco2)cc1 in this test?
Key: true

Exercise: Which outcome was entered for the compound CCc1ccc(NC(=O)COc2ccc(/C=C(/C#N)c3nc4ccccc4[nH]3)cc2OC)cc1 in this test?
Key: true

Exercise: Which outcome was entered for the compound CCCOc1ccc(Cc2c(Cl)nc(SC)nc2NC)cc1 in this test?
Key: true

Exercise: Which outcome was entered for the compound O=C(NC1CCCc2c1cnn2-c1ccccc1F)c1ccccn1 (stereo not given) in this test?
Key: true

Exercise: Which outcome was entered for the compound CCOc1ccc(CCNC(=O)COC(=O)CCc2cc(OC)c(OC)c(OC)c2)cc1OCC in this test?
Key: false

Exercise: Which outcome was entered for the compound COc1ccc2oc(C(=O)OCC(=O)NCCc3ccc(S(N)(=O)=O)cc3)c(C)c2c1 in this test?
Key: true

Exercise: Which outcome was entered for the compound COc1ccc(CCNC(=O)CCCOc2cccc(C)c2C)cc1OC in this test?
Key: false

***
Exercise: Which outcome was entered for the compound COc1cccc2cc(-c3nnc(SCC(=O)Nc4nc(C)cs4)n3C)oc12 in this test?
Key: true

Exercise: Which outcome was entered for the compound Cc1ccc(C(=O)NC2CCCc3c2cnn3-c2ccc(F)cc2F)cn1 (stereo not given) in this test?
Key: true
